# System Name: recombinant soluble homotrimeric HA of A/Japan/305/57 (H2N2) (Influenza A virus A/Japan/305/1957 (H2N2))
# Assay Protocol: HA microarray, BCC supernatant
# Condition Notes: remark: other sources report otherwise
Record form. Attribute: Trimeric HA Binding RLU. Fill in for each entry.
Your answer is read as RLU, so omit the unit and give the number.

For reference, reported Trimeric HA Binding RLU for TCN-531 (5091_H13) (antibody, V domains shown) VH: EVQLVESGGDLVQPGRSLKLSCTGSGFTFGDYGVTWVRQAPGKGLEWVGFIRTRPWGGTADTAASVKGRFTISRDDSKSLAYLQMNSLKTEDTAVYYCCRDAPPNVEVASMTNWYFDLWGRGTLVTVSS VL: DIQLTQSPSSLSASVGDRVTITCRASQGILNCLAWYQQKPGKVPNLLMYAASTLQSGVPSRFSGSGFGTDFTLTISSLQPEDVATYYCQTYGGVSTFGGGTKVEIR stands at 410

For reference, reported Trimeric HA Binding RLU for TCN-546 (5089_L08) (antibody, V domains shown) VH: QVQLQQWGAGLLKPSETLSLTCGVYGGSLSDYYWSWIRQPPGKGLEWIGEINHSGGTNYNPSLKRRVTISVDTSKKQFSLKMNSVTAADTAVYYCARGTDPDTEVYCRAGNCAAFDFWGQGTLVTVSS VL: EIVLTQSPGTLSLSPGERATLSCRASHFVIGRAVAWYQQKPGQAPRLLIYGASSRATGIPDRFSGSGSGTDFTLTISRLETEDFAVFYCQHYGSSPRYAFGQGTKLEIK stands at 520

For reference, reported Trimeric HA Binding RLU for TCN-530 (5248_H10a) (antibody, V domains shown) VH: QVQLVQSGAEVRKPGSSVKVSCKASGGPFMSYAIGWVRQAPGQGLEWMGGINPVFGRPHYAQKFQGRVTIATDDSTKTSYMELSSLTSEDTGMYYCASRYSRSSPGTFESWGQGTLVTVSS VL: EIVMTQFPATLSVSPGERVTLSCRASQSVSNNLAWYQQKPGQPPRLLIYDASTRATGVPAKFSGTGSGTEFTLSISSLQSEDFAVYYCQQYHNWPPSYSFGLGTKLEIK stands at 47000
